# STUDY_TARGET: Muscarinic acetylcholine receptor
Friendly reminder: IC50 below 8 nM is rule met, at or above is rule not met.

>>> label_value("CN1CCC=C(c2nsnc2SCCCc2ccccc2)C1")
"rule met"
>>> label_value("C(#Cc1ccccc1)CSc1nsnc1[C@@H]1CN2CCC[C@H]1C2")
"rule not met"
>>> label_value("CCCCCCOc1nsnc1[C@H]1CN2CC[C@H]1C2")
"rule met"
>>> label_value("CCCOc1nsnc1C1=CCCN(C)C1")
"rule met"
>>> label_value("CN1CCC=C(c2nsnc2OCCCc2ccccc2)C1")
"rule not met"
>>> label_value("CCCCCOc1nsnc1C1=CCCN(C)C1")
"rule met"
>>> label_value("COc1nsnc1C1=CCCN(C)C1")
"rule not met"
>>> label_value("C(#Cc1ccccc1)COc1nsnc1[C@@H]1CN2CC[C@H]1C2")
"rule not met"
>>> label_value("CN1CCC=C(c2nsnc2OCC#Cc2ccccc2)C1")
"rule not met"
>>> label_value("CN1CCC=C(c2nsnc2OCCCCc2ccccc2)C1")
"rule not met"
>>> label_value("CCCCCCOc1nsnc1[C@@H]1CN2CCC[C@H]1C2")
"rule not met"
>>> label_value("C(#Cc1ccccc1)COc1nsnc1[C@H]1CN2CCC[C@H]1C2")
"rule met"
>>> label_value("c1ccc(CCCSc2nsnc2C2CN3CCC2CC3)cc1 (stereo unspecified)")
"rule not met"
>>> label_value("c1ccc(CCCSc2nsnc2[C@H]2CN3CCC[C@H]2C3)cc1")
"rule met"
>>> label_value("CCCCCCOc1nsnc1[C@@H]1CN2CC[C@H]1C2 (stereo in doubt; 26)")
"rule met"
>>> label_value("c1ccc(CCCSc2nsnc2[C@H]2CN3CC[C@H]2C3)cc1")
"rule met"
